System: biotinyl-Trp-oxazolone
Assay: self-aminoacylation, catalytic enhancement (BWO) (fold over background); higher = more active; k-Seq, kA / k0A0; sequences stand for … in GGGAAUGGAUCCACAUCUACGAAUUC…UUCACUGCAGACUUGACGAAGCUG
This sample holds only a part of the variants without activity.
Response key: met means self-aminoacylation >= 6; not met means self-aminoacylation < 6.

### Prompt Has AUUUCCCUGGUCAUAGAGUGA [Fam2.1 aminoacylation ribozyme variant] a recorded self-aminoacylation greater than or equal to 6?
### Response met

### Prompt Now the sequence UUUCACCUAGGUCAUCGGAUG [Fam2.2 aminoacylation ribozyme variant]
### Response not met

### Prompt Now the sequence AUUCACCUAGGUCGACGGGUG [Fam2.2 aminoacylation ribozyme variant]
### Response not met

### Prompt Now the sequence UCUCACUUCAAGCAAUCGGUC [Fam1B.1 aminoacylation ribozyme variant]
### Response met

### Prompt Now the sequence CUACUUCAAUUAAUCGGUCUG [Fam1A.1 aminoacylation ribozyme variant]
### Response met

### Prompt Now the sequence UUACUUCAAAUAAUCGGUCUG [Fam1A.1 aminoacylation ribozyme variant]
### Response met

### Prompt Now the sequence AUUAACAUAGGUCAUCGGGUG [Fam2.2 aminoacylation ribozyme variant]
### Response met

### Prompt Now the sequence ACUACCCUGAUCAUCGAGUGA [Fam2.1 aminoacylation ribozyme variant]
### Response met

### Prompt Now the sequence CUACUUCAGAGAAUCGGUCUG [Fam1A.1 aminoacylation ribozyme variant]
### Response not met

### Prompt Now the sequence CUGCUUGAAACAAUCGGUCUG [Fam1A.1 aminoacylation ribozyme variant]
### Response not met

### Prompt Now the sequence AUUCACCUAGGUCGUCGGAUG [Fam2.2 aminoacylation ribozyme variant]
### Response not met

### Prompt Now the sequence CUACUUUAAACAAUAGGUCUG [Fam1A.1 aminoacylation ribozyme variant]
### Response not met

### Prompt Now the sequence CUACUUCAAACAAUUGGCCUG [Fam1A.1 aminoacylation ribozyme variant]
### Response not met

### Prompt Now the sequence CCACACUUCAAGCAAUCUGUG [Fam1B.1 aminoacylation ribozyme variant]
### Response not met

### Prompt Now the sequence AAGUUGGCUGAUAGUCGCAAG [Fam3.1 aminoacylation ribozyme variant]
### Response not met

### Prompt Now the sequence CUACUUCAAACAUUCCGUCUG [Fam1A.1 aminoacylation ribozyme variant]
### Response not met

### Prompt Now the sequence ACUCACUUCAAGCAAUCGGUC [Fam1B.1 aminoacylation ribozyme variant]
### Response not met

### Prompt Now the sequence CCACUUCAAACCAUCGGUCUG [Fam1A.1 aminoacylation ribozyme variant]
### Response not met

### Prompt Now the sequence CGACUUCAAACAAUCGGUCAG [Fam1A.1 aminoacylation ribozyme variant]
### Response not met

### Prompt Now the sequence GUUCACCUACGUCAUCGGGUG [Fam2.2 aminoacylation ribozyme variant]
### Response not met

All values here come from the supplement of paper PMC9233669.
